- study_target: Gal(b1-4)Glc
- measurement_notes: glycan array binding signal (z-score within array); higher = stronger binding
- condition: glycan notation: IUPAC condensed, linker removed
The entries come from a sample that favours the strongest signals as a whole.
property_name: glycan array binding signal (z-score)
One number for each entry.

Sample answers from the record:
binder	glycan array binding signal (z-score)
STA (Solanum tuberosum), Q9S8M0 (protein) NASPPSPSPLPYPQCGMKKGGGKCIKTGECCSIWGWCGTTNAYCSPGYCQKQCPGPYPEGRCGWQANGKSCPTGTGQCCSNGGWCGTTSDYCASKNCQSQCKLPSPPPPPPPPSPPPPSPPSPPPPSPPPPPPPSPPPPSPPPPSPSPPPPPASPPPPPPALPYPQCGIKKGGGKCIKTGECCSIWGWCGTTNAYCSPGYCQKQCPGPYPEGRCGWQANGKSCPTGTGHCCSNAGWCGTTSDYCAPVNCQAQCNTTTLTSPIKNRMRGIESFMLNVV	-0.586
CLEC5A (Homo sapiens), Q9NY25 (protein) MNWHMIISGLIVVVLKVVGMTLFLLYFPQIFNKSNDGFTTTRSYGTVSQIFGSSSPSPNGFITTRSYGTVCPKDWEFYQARCFFLSTSESSWNESRDFCKGKGSTLAIVNTPEKLKFLQDITDAEKYFIGLIYHREEKRWRWINNSVFNGNVTNQNQNFNCATIGLTKTFDAASCDISYRRICEKNAK	-0.243

API: the following record is the query input.
Query: Data request, read-out glycan array binding signal (z-score), for Lb MiSSP8 (Laccaria bicolor) (protein) MYFHTLFACATLMLITTAHASPTVINSLDSRKADLNGDVEARHAADWRRDSDWRRDSDWRRDSDWRRDSD
Reply: 0.702
